test-name: APR_HepG2_MitoticArrest_24hr: Apredica 24-hour HepG2 Assay for Mitotic Arrest (AID 2282910)
assay-setup: high-content imaging, actives raise or lower the signal
Activity calls are given as the source filed them. How the source made its calls: active means hit-call score of the fitted dose curve at least 0.9, where 1 is the maximum; inactive means score below 0.9.
measured-endpoint: AC50

Here's what some known entries look like.
given-smiles	test-result
CCO[Si](CCCNC(N)=O)(OCC)OCC	inactive
Clc1ccccc1C(c1ccccc1)(c1ccccc1)n1ccnc1	31.6 µM (active)
Cc1c2ccccc2c(C)c2c1ccc1ccccc12	49.3 µM (active)
c1ccc(C[n+]2cccc3ccccc32)cc1	inactive
Cc1ccc(C(C)C)cc1	inactive

Please look at the following compound next.
State its AC50 for this compound: `CN(C)C(=O)C1(N2CCCCC2)CCN(CC[C@@]2(c3ccc(Cl)c(Cl)c3)CN(C(=O)c3ccccc3)CCO2)CC1`
13.1 µM (active)

====

Read-out: ABC Transporter (ABCC3), ABCC3 (gene 8714)
test-name: LTEA_HepaRG_ABCC3: Life Technologies and Expression Analysis (LTEA) Assay for ABC Transporter (ABCC3) using HepaRG (AID 2283462)
assay-setup: mRNA level, 48 h; actives raise or lower the signal
The source made the active and inactive calls. How the source made its calls: active means hit-call score of the fitted dose curve at least 0.9, where 1 is the maximum; inactive means score below 0.9.
Your reply should match one of these outcome classes. true (1) (active), false (0) (inactive)

Some entries whose results are on file:
compound	label-value
COc1cc(C(=O)NC2CCN(C)CC2)ccc1Nc1ncc2c(n1)N(C1CCCC1)CC(F)(F)C(=O)N2C	true (1)
OC12N=C(c3ccccc3)SC1Cc1cc(Cl)ccc12 (configuration not stated)	true (1)
CN(C[C@@H](CC[N+]12CCC(C3CCCCC3)(CC1)CC2)c1ccc(Cl)c(Cl)c1)C(=O)c1cc(C(F)(F)F)cc(C(F)(F)F)c1	false (0)
CCCOC(=O)c1cc(O)c(O)c(O)c1	false (0)
c1ccc2n[nH]nc2c1	false (0)
CCCCCCCCCC(=O)O	false (0)

Returns: the outcome recorded for `Cc1cn([C@H]2C[C@H](N=[N+]=[N-])[C@@H](CO)O2)c(=O)[nH]c1=O` in this assay.
false (0)

Returns: the outcome recorded for `Cc1cccc2ccccc12` in this assay.
false (0)

Returns: the outcome recorded for `CC[C@H](NC(=O)c1cc(F)ccc1NS(=O)(=O)c1cccc2cccnc12)c1ccccc1` in this assay.
false (0)

Returns: the outcome recorded for `COc1ccc2cc(S(=O)(=O)N[C@H](CC(=O)N[C@H](Cc3ccc(CN4[C@H](C)CCC[C@@H]4C)cc3)C(=O)N(C)C(C)C)c3ccc4c(c3)OCO4)ccc2c1` in this assay.
true (1)

Returns: the outcome recorded for `C[C@]12CC[C@@H]3c4ccc(O)cc4CC[C@H]3[C@@H]1CC[C@H]2O` in this assay.
false (0)

====

Read-out: Interferon-gamma inducible Protein 10 (IP10), CXCL10 (gene 3627)
test-name: BSK_hDFCGF_IP10: BioMAP Diversity Plus: hDFCGF Assay for Interferon-gamma inducible Protein 10 (IP10) Biomarker Activity (AID 2283053)
assay-setup: primary human foreskin fibroblasts; actives raise or lower the signal
Activity calls are given as the source filed them. Rule for the calls: active = hit-call score of the fitted dose curve at least 0.9, where 1 is the maximum; inactive = score below 0.9.
Your reply should match one of these outcome classes. y (active), n (inactive)

compound	label-value
Clc1ccccc1C(c1ccccc1)(c1ccccc1)n1ccnc1	y
CCCCCCCCCCCC[N+](C)(C)C	y
CC[C@H](NC(=O)c1cc(F)ccc1NS(=O)(=O)c1cccc2cccnc12)c1ccccc1	n
CCN(CC)C(=O)c1cc(S(=O)(=O)Cc2ccccc2)c(N2CCC(c3ccccc3)CC2)cc1N(CC)CCN(C)C	n
CC(C)(C)c1csc(-c2cc3cc(OCc4ccccc4CC(=O)O)ccc3o2)n1	y
OC12N=C(c3ccccc3)SC1Cc1cc(Cl)ccc12 (stereo not given)	n
CCCCOC(=O)CC(CC(=O)OCCCC)(OC(C)=O)C(=O)OCCCC	n
CCOC(=O)O[C@H](C)OC(=O)c1ccc2c(c1)cc(C(=O)NC1CCN(C(C)C)CC1)n2Cc1cc(-c2ccc(Cl)s2)on1	y
Cc1c2ccccc2c(C)c2c1ccc1ccccc12	y

Now consider the entry below.
Returns: the outcome recorded for `CN1C(=O)CC[C@H]1c1cccnc1` in this assay.
n

====

test-name: BSK_4H_Eotaxin3: BioMAP Diversity Plus: 4H Assay for Eotaxin 3 Biomarker Activity (AID 2283000);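 on outcome: CCL26 protein level quantified by ELISA in parallel with SRB cytotoxicity check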
assay-setup: primary human endothelial cells (HUVEC); actives raise or lower the signal
Calls of active or inactive are those of the source. How the source made its calls: active means hit-call score of the fitted dose curve at least 0.9, where 1 is the maximum; inactive means score below 0.9.
Your reply should match one of these outcome classes. Yes (active), No (inactive)

Some entries whose results are on file:
compound	label-value
O=c1ccc2ccccc2o1	No
CC/C(=C(/CC)c1ccc(O)cc1)c1ccc(O)cc1	Yes
CCCCCCCCOc1ccc(C(=O)c2ccccc2)c(O)c1	No
Cc1ncc(CO)c(CO)c1O	No
O=C(O)Cn1c(=O)n(Cc2ccc(Br)cc2F)c(=O)c2ccc(Cl)cc21	No

Returns: the outcome recorded for `Cc1ccc2oc(CN(Cc3ccccc3)C(=O)Nc3c(F)cc(F)cc3F)c(-c3ccc(Cl)cc3)c2c1` in this assay.
No

Returns: the outcome recorded for `NCc1cccc(C2CCN(C(=O)c3ccc(C#Cc4ccccc4F)o3)CC2)c1` in this assay.
Yes

Returns: the outcome recorded for `CC(=O)N1CCN(c2ccc(OC[C@H]3CO[C@](Cn4ccnc4)(c4ccc(Cl)cc4Cl)O3)cc2)CC1` in this assay.
Yes

Returns: the outcome recorded for `Clc1cc(Cl)c2c(c1)N=C1CCCCCN1C2` in this assay.
No

Returns: the outcome recorded for `Oc1ccc2ccccc2c1` in this assay.
Yes

Returns: the outcome recorded for `CC(C)(C)c1cc(/C=C2\SC(N)=NC2=O)cc(C(C)(C)C)c1O` in this assay.
Yes

Returns: the outcome recorded for OC12N=C(c3ccccc3)SC1Cc1cc(Cl)ccc12 (configuration not stated) in this assay.
Yes

====

Read-out: Nuclear factor erythroid 2-related factor 2 (Homo sapiens) (UniProt Q16236)
Sequence (Q16236 whole entry, looked up): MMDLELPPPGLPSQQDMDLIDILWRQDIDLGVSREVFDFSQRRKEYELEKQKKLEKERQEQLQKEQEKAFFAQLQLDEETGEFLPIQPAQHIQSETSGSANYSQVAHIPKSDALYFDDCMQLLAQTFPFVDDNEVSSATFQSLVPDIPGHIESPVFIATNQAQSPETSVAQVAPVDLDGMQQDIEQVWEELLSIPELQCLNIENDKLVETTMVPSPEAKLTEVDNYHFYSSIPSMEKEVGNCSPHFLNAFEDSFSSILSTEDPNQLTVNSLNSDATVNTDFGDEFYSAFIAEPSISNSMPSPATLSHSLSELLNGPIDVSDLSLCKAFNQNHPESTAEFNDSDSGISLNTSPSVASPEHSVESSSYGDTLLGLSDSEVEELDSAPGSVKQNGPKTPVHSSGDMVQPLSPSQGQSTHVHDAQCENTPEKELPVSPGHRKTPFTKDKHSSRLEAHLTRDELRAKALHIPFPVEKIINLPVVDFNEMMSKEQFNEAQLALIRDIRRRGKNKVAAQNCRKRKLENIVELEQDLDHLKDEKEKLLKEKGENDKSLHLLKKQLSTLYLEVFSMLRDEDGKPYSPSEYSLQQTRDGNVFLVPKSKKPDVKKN
test-name: LTEA_HepaRG_NFE2L2: Life Technologies and Expression Analysis (LTEA) Assay for Nuclear factor erythroid 2-related factor 2 (NFE2L2) Transcription Factor using HepaRG (AID 2283527)
assay-setup: mRNA level, 48 h; actives raise or lower the signal
Active and inactive are the calls of the source. How the source made its calls: active means hit-call score of the fitted dose curve at least 0.9, where 1 is the maximum; inactive means score below 0.9.
measured-endpoint: AC50

molecule	test-result
CCCCOC(=O)CC(CC(=O)OCCCC)(OC(C)=O)C(=O)OCCCC	inactive
CCCCCCCCCCCCO	inactive
Clc1cc(Cl)c2c(c1)N=C1CCCCCN1C2	inactive
CCOC(=O)O[C@H](C)OC(=O)c1ccc2c(c1)cc(C(=O)NC1CCN(C(C)C)CC1)n2Cc1cc(-c2ccc(Cl)s2)on1	inactive
c1ccc(C[n+]2cccc3ccccc32)cc1	13.6 µM (active)
OCCO	inactive

State its AC50 for this molecule: `CC(C)(c1cc(Br)c(O)c(Br)c1)c1cc(Br)c(O)c(Br)c1`
inactive

State its AC50 for this molecule: `CC1(C)NC(=O)N(c2ccc([N+](=O)[O-])c(C(F)(F)F)c2)C1=O`
inactive

State its AC50 for this molecule: `Cc1c2ccccc2c(C)c2c1ccc1ccccc12`
90.5 µM (active)

State its AC50 for this molecule: `Clc1ccccc1C(c1ccccc1)(c1ccccc1)n1ccnc1`
14.5 µM (active)

State its AC50 for this molecule: `NCc1cccc(C2CCN(C(=O)c3ccc(C#Cc4ccccc4F)o3)CC2)c1`
inactive

State its AC50 for this molecule: `CC/C(=C(/CC)c1ccc(O)cc1)c1ccc(O)cc1`
89.9 µM (active)

State its AC50 for this molecule: OC12N=C(c3ccccc3)SC1Cc1cc(Cl)ccc12 (centres undefined)
inactive

State its AC50 for this molecule: `NC(=O)c1nc(-c2cccc(-c3cc(F)ccc3OCC(F)(F)C(F)(F)F)c2)n[nH]1`
inactive

State its AC50 for this molecule: `CCCCCCCCOC(=O)c1cc(O)c(O)c(O)c1`
inactive

State its AC50 for this molecule: `C[C@]12CC[C@@H]3c4ccc(O)cc4CC[C@H]3[C@@H]1CCC2=O`
inactive

State its AC50 for this molecule: `O=C1CCC(C2CCCCC2)CC1`
inactive

State its AC50 for this molecule: `Cc1cn([C@H]2C[C@H](N=[N+]=[N-])[C@@H](CO)O2)c(=O)[nH]c1=O`
inactive

State its AC50 for this molecule: CN1C(=O)N(c2ccccc2Br)Cc2cnc(Nc3ccc4c(c3)OCC(CO)O4)nc21 (centres undefined)
inactive

State its AC50 for this molecule: `CN(C)c1ccc(C(=C2C=CC(=[N+](C)C)C=C2)c2ccc(N(C)C)cc2)cc1`
12.7 µM (active)

State its AC50 for this molecule: `CC(C)(C)c1csc(-c2cc3cc(OCc4ccccc4CC(=O)O)ccc3o2)n1`
inactive

State its AC50 for this molecule: `CCCOC(=O)c1cc(O)c(O)c(O)c1`
inactive

State its AC50 for this molecule: `CCO[Si](CCCNC(N)=O)(OCC)OCC`
inactive

State its AC50 for this molecule: `CCCCOC(=O)c1ccc(O)cc1`
inactive

State its AC50 for this molecule: `CCCCCCCCOc1ccc(C(=O)c2ccccc2)c(O)c1`
inactive
